System: α7 integrin (LacZ reporter in α7+/LacZ myotubes)
Experiment: Myotube α7 integrin FDG assay (Burkin assay in myotubes, 96-well)
Format: cell-based, mouse
Conditions: 10 uM, myotubes
parameter measured: Burkin Assay in Myotubes (signal relative to DMSO)

1) Cc1cc(C)cc(-n2nnc(C(=O)NCc3ccccc3Cl)c2N)c1 | 0.823
2) COc1cccc(N2C(=O)CC(N3CCc4ccccc4C3)C2=O)c1 (stereo not shown) | 1.165
3) Cc1cc(NC(=O)CCC(=O)N(Cc2cccnc2)C(C(=O)NC(C)(C)C)c2ccccc2Cl)no1 (stereo not shown) | 1.075
4) COC(=O)c1ccc(COC(=O)CNC(=O)c2cccs2)cc1 | 1.116
